Hi there, I'd appreciate the recorded PBM binding z-score for every entry that follows.
System: VDR:RXRa (NR concentration 270 nM, RXRa partner concentration 90 nM)
assay_procedure: PBM binding z-score (relative to random genomic background probes); higher = stronger binding; sequences stand for … in GC…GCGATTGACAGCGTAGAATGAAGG
Give bare numbers.

Give me PBM binding z-score for each of these sequences, listed below.
1. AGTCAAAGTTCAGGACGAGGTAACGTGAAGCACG
2. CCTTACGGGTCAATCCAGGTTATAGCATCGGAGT
3. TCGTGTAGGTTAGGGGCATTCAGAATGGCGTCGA

1. 3.16
2. 4.64
3. 0.914

Give me PBM binding z-score for each of these sequences, listed below.
1. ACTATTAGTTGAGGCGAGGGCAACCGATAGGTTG
2. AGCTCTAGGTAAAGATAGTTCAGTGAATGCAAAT
3. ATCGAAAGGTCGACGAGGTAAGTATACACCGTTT
4. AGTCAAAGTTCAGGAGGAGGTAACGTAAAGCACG
5. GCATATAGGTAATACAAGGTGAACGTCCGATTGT
6. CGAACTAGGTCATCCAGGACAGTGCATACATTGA

0.632
0.921
4.59
2.89
0.043
4.69

Give me PBM binding z-score for each of these sequences, listed below.
1. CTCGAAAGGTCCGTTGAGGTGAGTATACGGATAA
2. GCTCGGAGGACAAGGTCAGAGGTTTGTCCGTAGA

1. 0.243
2. 1.81
